# Test system: β-galactosidase in CMV-LacZ C2C12 myotubes
# Measurement Notes: CMV-LacZ secondary screen in C2C12 myotubes (β-Gal stabilizing assay)
# Format: cell-based, mouse
# Details: 40 uM; C2C12 CMV-LacZ myotubes; fold relative to DMSO
Endpoint: CMV-LACZ in Myotubes, signal relative to DMSO
Quick one: just the number, no unit, thanks!

Q: State CMV-LACZ in Myotubes, signal relative to DMSO on β-galactosidase in CMV-LacZ C2C12 myotubes. Entry: "O=c1[nH]c(SCc2ccc(Cl)cc2)nc2ccsc12"
A: 1.0190

Q: GET CMV-LACZ in Myotubes, signal relative to DMSO | system: β-galactosidase in CMV-LacZ C2C12 myotubes | item: "COc1cccc(C(=O)COc2ccc3ccc(=O)oc3c2)c1"
A: 1.2494

Q: Provide β-galactosidase in CMV-LacZ C2C12 myotubes CMV-LACZ in Myotubes, signal relative to DMSO reading for "CCc1ccc(Sc2cc(C(=O)NCCN3CCOCC3)c3ccccc3n2)cc1" .
A: 0.7478

Q: // output CMV-LACZ in Myotubes, signal relative to DMSO; input "CCCn1c(-c2cc(OC)c(OC)c(OC)c2)nc2c1c(=O)[nH]c(=O)n2Cc1ccccc1" ; system β-galactosidase in CMV-LacZ C2C12 myotubes
A: 0.8863

Q: Supply CMV-LACZ in Myotubes, signal relative to DMSO measured with β-galactosidase in CMV-LacZ C2C12 myotubes for "c1ccc(-c2cnc(-c3ccccc3)nc2)cc1" .
A: 0.8623

Q: Under β-galactosidase in CMV-LacZ C2C12 myotubes, report CMV-LACZ in Myotubes, signal relative to DMSO for "Cc1nc(Nc2ccccc2F)c2oc3ccccc3c2n1"
A: 1.1030

Q: State measured CMV-LACZ in Myotubes, signal relative to DMSO of the compound "O=S(=O)(NC(=NC1CCCCC1)c1ccccc1F)c1ccccc1" with β-galactosidase in CMV-LacZ C2C12 myotubes.
A: 1.0082

Q: Answer with CMV-LACZ in Myotubes, signal relative to DMSO of O=C(NCc1ccccc1)C(c1c(F)cccc1Cl)N(C(=O)c1csnn1)C1CC1 (stereo not shown) measured for β-galactosidase in CMV-LacZ C2C12 myotubes.
A: 0.8850

Q: Quote CMV-LACZ in Myotubes, signal relative to DMSO with test system β-galactosidase in CMV-LacZ C2C12 myotubes for "Nc1cccc(/C=C/C(=O)O)c1"
A: 1.0474

Q: Under β-galactosidase in CMV-LacZ C2C12 myotubes: report CMV-LACZ in Myotubes, signal relative to DMSO of N#Cc1ccc(OCC(O)CS(=O)(=O)c2ccccc2)cc1 (stereo not shown) .
A: 1.1019

Q: Provide CMV-LACZ in Myotubes, signal relative to DMSO, tested on β-galactosidase in CMV-LacZ C2C12 myotubes, for "Cc1ccsc1CN(C)CC(=O)Nc1ccc([N+](=O)[O-])cc1Cl" .
A: 0.6358

Q: Write down the reported CMV-LACZ in Myotubes, signal relative to DMSO (system: β-galactosidase in CMV-LacZ C2C12 myotubes) of Cc1ccc(Cn2nnc3c(=O)[nH]c(C4CCCN(C(=O)c5ccco5)C4)nc32)cc1 (stereo not shown)
A: 1.0105

Q: Please indicate recorded CMV-LACZ in Myotubes, signal relative to DMSO of COc1ccc2oc(C[S+]([O-])c3ccccc3)c(C(=O)O)c2c1 (stereo not shown) measured with β-galactosidase in CMV-LacZ C2C12 myotubes.
A: 0.9238

Q: Report the value of CMV-LACZ in Myotubes, signal relative to DMSO obtained on β-galactosidase in CMV-LacZ C2C12 myotubes for "N#Cc1ccc(Sc2nc3ccccc3[nH]2)cc1C#N" .
A: 1.3647

Q: Given CCC(C)n1[nH]c(=O)cc1N (stereo not shown) , report its CMV-LACZ in Myotubes, signal relative to DMSO on β-galactosidase in CMV-LacZ C2C12 myotubes.
A: 1.0390

Q: Report value only: CMV-LACZ in Myotubes, signal relative to DMSO, β-galactosidase in CMV-LacZ C2C12 myotubes, "O=[N+]([O-])c1ccc(N2CCN(c3ccccc3F)CC2)nc1"
A: 1.038

Q: Give the observed CMV-LACZ in Myotubes, signal relative to DMSO of COc1ccc(CN2CCNC(=O)C2CC(=O)NCCc2c[nH]c3ccccc23)c(OC)c1 (stereo not shown) for β-galactosidase in CMV-LacZ C2C12 myotubes.
A: 0.9095

Q: Give reported CMV-LACZ in Myotubes, signal relative to DMSO for "COCCSc1ccccc1C(=O)Nc1cc(C)cc(C)c1" (β-galactosidase in CMV-LacZ C2C12 myotubes)
A: 0.9822

Q: Consider the compound "CC(C)(C)Nc1nc(-c2ccc3c(c2)CCN3C(=O)C2CC2)cs1" tested on β-galactosidase in CMV-LacZ C2C12 myotubes; state its CMV-LACZ in Myotubes, signal relative to DMSO.
A: 0.9659

Q: Lab note: β-galactosidase in CMV-LacZ C2C12 myotubes assay, enter CMV-LACZ in Myotubes, signal relative to DMSO for CC1CCCCC12NC(=O)N(CC(=O)OCc1cccc(F)c1)C2=O (stereo not shown) here
A: 1.046

Q: Lab note: β-galactosidase in CMV-LacZ C2C12 myotubes assay, enter CMV-LACZ in Myotubes, signal relative to DMSO for "Cc1ccsc1-c1n[nH]c(=S)n1C1CCCCC1" here
A: 1.0111

Q: Enter recorded CMV-LACZ in Myotubes, signal relative to DMSO with β-galactosidase in CMV-LacZ C2C12 myotubes for "COc1cc(NC(=O)OCc2ccccc2)c2ncccc2c1" here.
A: 1.1071

Q: Find CMV-LACZ in Myotubes, signal relative to DMSO for "COC(=O)c1cc(S(=O)(=O)NCC2CCN(Cc3ccc(Cl)cc3)CC2)cn1C" on β-galactosidase in CMV-LacZ C2C12 myotubes and write it down.
A: 1.0358

Q: Answer briefly: CMV-LACZ in Myotubes, signal relative to DMSO recorded on β-galactosidase in CMV-LacZ C2C12 myotubes for "O=Cc1cn(Cc2ccc(F)cc2Cl)c2ccccc12"
A: 0.46

Q: Quote β-galactosidase in CMV-LacZ C2C12 myotubes CMV-LACZ in Myotubes, signal relative to DMSO for entry "O=C(N/N=C/c1cn[nH]c1-c1ccc(F)cc1)c1ccncc1" .
A: 0.8864

Q: Look up and report measured CMV-LACZ in Myotubes, signal relative to DMSO (β-galactosidase in CMV-LacZ C2C12 myotubes) for the following compound: "CCCCN1CC(=O)N2Cc3[nH]c4ccccc4c3C[C@H]2C1=O"
A: 0.8558

Q: Output reported CMV-LACZ in Myotubes, signal relative to DMSO of the compound "CC(=O)Nc1nonc1-c1nc2ccccc2n1CCC(C)C" on β-galactosidase in CMV-LacZ C2C12 myotubes.
A: 0.9509

Q: Give CMV-LACZ in Myotubes, signal relative to DMSO for "C/C(=N\NC(=O)c1cc(C)oc1C)c1ccc2ccccc2c1" tested on β-galactosidase in CMV-LacZ C2C12 myotubes.
A: 1.0350

Q: # assay system β-galactosidase in CMV-LacZ C2C12 myotubes: give CMV-LACZ in Myotubes, signal relative to DMSO of O=C(NCCc1ccc(Cl)cc1)C1CCCO1 (stereo not shown)
A: 1.0053

Q: Please indicate recorded CMV-LACZ in Myotubes, signal relative to DMSO of "CCOC(=O)c1cc(C(=O)OCC)c(=O)[nH]c1SCc1ccccc1" measured with β-galactosidase in CMV-LacZ C2C12 myotubes.
A: 1.0600

Q: Please look at "CC(C)Oc1cccc(C(=O)Nc2ccc(CN3CCOCC3)cc2)c1" and tell me its recorded CMV-LACZ in Myotubes, signal relative to DMSO on β-galactosidase in CMV-LacZ C2C12 myotubes.
A: 1.2047

Q: Determine reported CMV-LACZ in Myotubes, signal relative to DMSO for CCOC(=O)C1(Cc2cccc(Cl)c2)CCCN(C(=O)CCSC)C1 (stereo not shown) ; test system: β-galactosidase in CMV-LacZ C2C12 myotubes.
A: 1.0744

Q: State measured CMV-LACZ in Myotubes, signal relative to DMSO of the compound "CN(CC(=O)Nc1cccc(F)c1)C(=O)c1ccc(-c2ccc(Cl)cc2)o1" with β-galactosidase in CMV-LacZ C2C12 myotubes.
A: 0.6710

Q: Write down measured CMV-LACZ in Myotubes, signal relative to DMSO (β-galactosidase in CMV-LacZ C2C12 myotubes) for this compound. Cl.O=C1C2CCCN2C(=O)N1CCCN1CCN(c2cccc(Br)c2)CC1 (stereo not shown)
A: 1.0274

Q: GET CMV-LACZ in Myotubes, signal relative to DMSO | system: β-galactosidase in CMV-LacZ C2C12 myotubes | item: "CN(C)C1(CN=Cc2cc(Cl)cc([N+](=O)[O-])c2O)CCCCC1"
A: 1.047

Q: Return reported CMV-LACZ in Myotubes, signal relative to DMSO for target or system β-galactosidase in CMV-LacZ C2C12 myotubes, item CC(NC(=O)c1cn(C)c2ccc(S(=O)(=O)N3CCCC3)cc2c1=O)c1ccccc1 (stereo not shown) .
A: 0.92

Q: Name the recorded CMV-LACZ in Myotubes, signal relative to DMSO of "Cc1cccc(NC(=O)c2cc3ccccc3oc2=O)c1" , assay system β-galactosidase in CMV-LacZ C2C12 myotubes.
A: 0.9952
